Please provide measured pIC50 for the entries that follow.
# Test system: MV4-11 cells
# method notes: Proliferation of MV4-11 cells, luminescent cell viability assay
# Type: cell-based, human
# condition set: Homo sapiens, MV4-11, 48 h, read-out: MV4-11 Proliferation IC50
Give bare numbers, as −log10 of the molar value.

> print(dat)
                                   compound   test.target  assay.value
1  COc1ccc(/C=C/C(=O)NO)c(-c2cccs2)c1 [Compound 5b]  MV4-11 cells         7.08

Then this compound:
Recorded pIC50 for COc1ccc(/C=C/C(=O)NO)c(-c2ccc3c(c2)OCO3)c1 [Compound 5e] , please? 5.13
